# TARGET OR SYSTEM: PRMT5/MEP50 (Homo sapiens (Human))
# METHOD NOTES: PRMT5 Biochemical Assay (PRMT5/MEP50 enzyme assay on peptide substrate, 3H-SAM Flashplate)
# COND: PRMT5/MEP50 biochemical assay; read-out: Biochemical IC50
I'd be grateful if you could share measured IC50 for these entries.

The compound listed as O=C(NCC(O)CN1CCc2ccccc2C1)c1cccc(NCCN2CCOCC2)c1 (stereo not shown) [Compound 61] shows IC50 equal to 101 to 1000 nM

The compound listed as O=C(NCC(O)CN1CCc2ccccc2C1)c1cccc(NC2CCCOC2)c1 (stereo not shown) [Compound 60] shows IC50 equal to 101 to 1000 nM

The compound listed as O=C(NC[C@H](O)CN1CCc2ccccc2C1)c1cccc(NC2CCOC2)c1 (stereo partly shown) [Compound 80] shows IC50 equal to < 100 nM

The compound listed as CS(=O)(=O)N1CCC(Oc2ccc(C(=O)NCC(O)CN3CCc4ccccc4C3)cc2)C1 (stereo not shown) [Compound 198] shows IC50 equal to < 100 nM

The compound listed as O=C(NCC(O)CN1CCc2ccccc2C1)c1cccc(NC2CCNC2)c1 (stereo not shown) [Compound 93] shows IC50 equal to 101 to 1000 nM

The compound listed as O=C(NC[C@H](O)CN1CCc2ccccc2C1)c1ccc(OC2CCN(Cc3ccncc3)CC2)cc1 [Compound 331] shows IC50 equal to < 100 nM

The compound listed as O=C(NCC(O)CN1CCc2ccccc2C1)c1cccc(NC2CCN(CC(F)(F)F)CC2)c1 (stereo not shown) [Compound 126] shows IC50 equal to < 100 nM

The compound listed as NCCN1CCN(Cc2cccc(C(=O)NCC(O)CN3CCc4ccccc4C3)c2)CC1 (stereo not shown) [Compound 147] shows IC50 equal to < 100 nM

The compound listed as O=C(NC[C@H](O)CN1CCc2ccccc2C1)c1ccnc(NC2CCOC2)c1 (stereo partly shown) [Compound 306] shows IC50 equal to < 100 nM

The compound listed as O=C(NC[C@@H](O)CN1CCc2ccccc2C1)c1cccc(-c2ccccn2)c1 [Compound 19] shows IC50 equal to < 100 nM

The compound listed as O=C(NC[C@H](O)CN1CCc2ccccc2C1)c1cc(OC2CCN(CC(F)(F)F)CC2)ncn1 [Compound 285] shows IC50 equal to 101 to 1000 nM

The compound listed as CN1CCN(Cc2cccc(C(=O)NCC(O)CN3CCc4ccccc4C3)c2)CC1 (stereo not shown) [Compound 30] shows IC50 equal to < 100 nM

The compound listed as O=C(NC[C@H](O)CN1CCc2ccccc2C1)c1ccc2[nH]cnc2c1 [Compound 294] shows IC50 equal to 101 to 1000 nM

The compound listed as CC(C)(C)c1cc(Nc2cc(C(=O)NC[C@H](O)CN3CCc4ccccc4C3)ccn2)n[nH]1 [Compound 326] shows IC50 equal to < 100 nM

The compound listed as O=C(NC[C@H](O)CN1CCc2ccccc2C1)c1ccnc(NCc2cccnc2)c1 [Compound 190] shows IC50 equal to < 100 nM

The compound listed as O=C(NC[C@H](O)CN1CCc2ccccc2C1)c1ccc2ncccc2c1 [Compound 220] shows IC50 equal to < 100 nM

The compound listed as CN(C)C(=O)CNCc1cccc(C(=O)NCC(O)CN2CCc3ccccc3C2)c1 (stereo not shown) [Compound 118] shows IC50 equal to < 100 nM

The compound listed as CN(c1ccc(C(=O)NCC(O)CN2CCc3ccccc3C2)cc1)C1CCOC1 (stereo not shown) [Compound 144] shows IC50 equal to < 100 nM

The compound listed as O=C(NC[C@H](O)CN1CCc2ccccc2C1)c1ccnc(NC2CCN(CC(F)(F)F)CC2)c1 [Compound 224] shows IC50 equal to < 100 nM

The compound listed as CN1CCC(Nc2cc(C(=O)NC[C@H](O)CN3CCc4ccccc4C3)ccn2)CC1 [Compound 223] shows IC50 equal to < 100 nM

The compound listed as Cc1ccc2cc(C(=O)NCC(O)CN3CCc4ccccc4C3)ccc2n1 (stereo not shown) [Compound 84] shows IC50 equal to < 100 nM

The compound listed as CC(C)N1CCC(Nc2cccc(C(=O)NCC(O)CN3CCc4ccccc4C3)c2)CC1 (stereo not shown) [Compound 103] shows IC50 equal to < 100 nM

The compound listed as CS(=O)(=O)N1CC(Nc2cc(C(=O)NC[C@H](O)CN3CCc4ccccc4C3)ccn2)C1 [Compound 278] shows IC50 equal to < 100 nM

The compound listed as COc1ccc(C(=O)NCC(O)CN2CCc3ccccc3C2)cc1NC1CCOCC1 (stereo not shown) [Compound 67] shows IC50 equal to 101 to 1000 nM

The compound listed as COc1ccc(NC2CCOCC2)cc1C(=O)NCC(O)CN1CCc2ccccc2C1 (stereo not shown) [Compound 77] shows IC50 equal to < 100 nM

The compound listed as C[C@H]1CC(Nc2cccc(C(=O)NC[C@H](O)CN3CCc4ccccc4C3)c2)CCO1 (stereo partly shown) [Compound 167] shows IC50 equal to < 100 nM

The compound listed as CS(=O)(=O)N1CCC(Oc2cccc(C(=O)NCC(O)CN3CCc4ccccc4C3)c2)C1 (stereo not shown) [Compound 162] shows IC50 equal to < 100 nM

The compound listed as O=C(NC[C@H](O)CN1CCc2ccccc2C1)c1ccnc(NCCNCC(F)(F)F)c1 [Compound 316] shows IC50 equal to < 100 nM

The compound listed as O=C(NCC(O)CN1CCc2ccccc2C1)c1cccc(OC2CCNC2)c1 (stereo not shown) [Compound 119] shows IC50 equal to < 100 nM

The compound listed as O=C(NCC(O)CN1CCc2ccccc2C1)c1cccc(NC2CCNCC2)c1 (stereo not shown) [Compound 94] shows IC50 equal to < 100 nM

The compound listed as COc1ccc2cc(C(=O)NCC(O)CN3CCc4ccccc4C3)ccc2n1 (stereo not shown) [Compound 155] shows IC50 equal to 101 to 1000 nM

---

# TARGET OR SYSTEM: PRMT5/MEP50 (Homo sapiens (Human), UniProt O14744)
# Sequence (O14744 other isoform, or with tags, fused parts or gaps): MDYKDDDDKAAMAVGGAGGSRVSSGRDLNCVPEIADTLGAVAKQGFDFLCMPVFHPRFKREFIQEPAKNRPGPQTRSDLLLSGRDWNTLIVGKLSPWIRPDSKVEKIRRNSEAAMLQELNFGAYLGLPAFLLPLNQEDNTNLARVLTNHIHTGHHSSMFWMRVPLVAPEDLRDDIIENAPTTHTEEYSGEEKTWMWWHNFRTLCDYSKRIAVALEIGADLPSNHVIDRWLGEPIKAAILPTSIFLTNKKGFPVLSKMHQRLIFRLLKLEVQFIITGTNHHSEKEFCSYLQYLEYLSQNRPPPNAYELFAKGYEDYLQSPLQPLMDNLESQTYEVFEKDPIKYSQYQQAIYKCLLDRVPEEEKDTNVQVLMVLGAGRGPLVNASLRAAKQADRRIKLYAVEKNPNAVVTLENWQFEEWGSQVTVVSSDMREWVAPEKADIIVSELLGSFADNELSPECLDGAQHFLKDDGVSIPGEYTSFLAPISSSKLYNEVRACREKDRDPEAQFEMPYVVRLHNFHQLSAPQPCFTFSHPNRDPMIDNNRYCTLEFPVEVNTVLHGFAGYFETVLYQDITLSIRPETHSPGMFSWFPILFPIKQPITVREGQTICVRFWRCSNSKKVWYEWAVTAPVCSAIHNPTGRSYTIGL
# Sequence (Q9BQA1 other isoform, or with tags, fused parts or gaps partner): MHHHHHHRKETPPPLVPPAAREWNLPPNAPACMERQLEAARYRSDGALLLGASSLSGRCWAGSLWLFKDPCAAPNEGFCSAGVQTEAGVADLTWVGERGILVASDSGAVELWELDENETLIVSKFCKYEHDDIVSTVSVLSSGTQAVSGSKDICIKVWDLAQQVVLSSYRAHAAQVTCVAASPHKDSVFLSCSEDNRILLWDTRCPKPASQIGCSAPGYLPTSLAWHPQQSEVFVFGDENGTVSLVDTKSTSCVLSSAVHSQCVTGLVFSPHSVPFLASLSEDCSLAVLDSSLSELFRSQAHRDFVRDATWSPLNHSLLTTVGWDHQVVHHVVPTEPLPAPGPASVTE
# METHOD NOTES: PRMT5 Biochemical Assay (PRMT5/MEP50 enzyme assay on peptide substrate, 3H-SAM Flashplate)
# COND: PRMT5/MEP50 biochemical assay; read-out: Biochemical IC50
# From the text: S-adenosylmethionine (SAM), S-adenosylhomocysteine (SAH), bicine, KCl, Tween20, dimethylsulfoxide (DMSO), bovine skin gelatin (BSG), and Tris(2-carboxyethyl)phosphine hydrochloride solution (TCEP) were purchased from Sigma-Aldrich at the highest level of purity possible. ^3H-SAM was purchase from American Radiolabeled Chemicals with a specific activity of 80 Ci/mmol. 384-well streptavidin Flashplates were purchased from PerkinElmer. […]
pIC50: −log10 of the molar value.
RESULT TYPE: pIC50

The measured pIC50 that O=C(NC[C@@H](O)CN1CCc2ccccc2C1)Oc1ccccc1 showed for PRMT5/MEP50 (Homo sapiens (Human), UniProt O14744) is > 7.00

The measured pIC50 that CC(=O)N(C)CCNc1cc(C(=O)NC[C@H](O)CN2CCc3ccccc3C2)ccn1 showed for PRMT5/MEP50 (Homo sapiens (Human), UniProt O14744) is > 7.00

The measured pIC50 that COCCCNc1cccc(C(=O)NCC(O)CN2CCc3ccccc3C2)c1 (centres unmarked) [Compound 70] showed for PRMT5/MEP50 (Homo sapiens (Human), UniProt O14744) is 6.00 to 7.00

The measured pIC50 that O=C(NCC(O)CN1CCc2ccccc2C1)c1cn[nH]c1-c1ccccc1 (centres unmarked) showed for PRMT5/MEP50 (Homo sapiens (Human), UniProt O14744) is 6.00 to 7.00

The measured pIC50 that O=C(NCC(O)CN1CCc2ccccc2C1)c1ccc(OC2CCOCC2)cc1 (centres unmarked) showed for PRMT5/MEP50 (Homo sapiens (Human), UniProt O14744) is > 7.00
